Source of measurements: paper PMC11374673

Reported log10 of MIC is given for each of the following compounds.
System: E. coli W3110
Assay: MIC by broth microdilution
Format: cell-based, Escherichia coli
Settings: Escherichia coli, W3110, WT, broth microdilution; read-out: MIC E. coli W3110
recorded metric: log10 of MIC (log10 of the value in µM)

smiles entry: Cc1ccccc1-c1ccc(CNCCNS(=O)(=O)c2cccc3cnccc23)cc1
log10 of MIC: 1.10

smiles entry: O=S(=O)(NCCNCc1ccc(-c2ccccc2)c(F)c1)c1cccc2cnccc12
log10 of MIC: 1.10

smiles entry: O=S(=O)(NCCNCc1ccc(-c2ccc(F)cc2)c(F)c1)c1cccc2cnccc12
log10 of MIC: 1.10

smiles entry: O=S(=O)(NCCNCc1ccc(-c2ccc(F)nc2)c(F)c1)c1cccc2cnccc12
log10 of MIC: 0.80

smiles entry: O=S(=O)(NCCNCc1ccc(-c2ccc(F)cc2)c(Cl)c1)c1cccc2cnccc12
log10 of MIC: 1.70

smiles entry: O=S(=O)(NC[C@@H]1CC[C@H](c2ccc(-c3ccc(F)cc3)cc2)N1)c1cccc2cnccc12
log10 of MIC: 0.20

smiles entry: O=S(=O)(NCCNCc1ccc(-c2ccsc2)cc1)c1cccc2cnccc12
log10 of MIC: 0.80

smiles entry: O=S(=O)(NC[C@@H]1CC[C@H](c2ccc(-c3ccccc3)cc2)N1)c1cccc2cnccc12
log10 of MIC: 0.20

smiles entry: O=S(=O)(NCCNCc1ccc(-c2ccc(Cl)c(Cl)c2)cc1)c1cccc2cnccc12
log10 of MIC: 1.40

smiles entry: N#Cc1ccc(-c2ccc(CNCCNS(=O)(=O)c3cccc4cnccc34)cc2)cc1
log10 of MIC: 0.80

smiles entry: O=S(=O)(NC[C@@H]1CC[C@H](c2ccc(-c3cccnc3)cc2)N1)c1cccc2cnccc12
log10 of MIC: 0.49

smiles entry: O=S(=O)(NCCNCc1ccc(-c2cccnc2)cc1)c1cccc2cnccc12
log10 of MIC: 0.80

smiles entry: O=S(=O)(NCCNCc1ccc(-c2ccccc2Cl)cc1)c1cccc2cnccc12
log10 of MIC: 1.40

smiles entry: O=S(=O)(NCCNCc1ccc(-c2ccccc2)cc1)c1cccc2cnccc12
log10 of MIC: 0.80

smiles entry: O=S(=O)(NCCNCc1ccc(-c2cccc(F)c2)cc1)c1cccc2cnccc12
log10 of MIC: 1.10

smiles entry: O=S(=O)(NCCNCc1ccc(-c2cccnc2)c(F)c1)c1cccc2cnccc12
log10 of MIC: 1.40

smiles entry: O=S(=O)(NCCNCc1ccc(-c2ccc(F)cc2)cc1)c1cccc2cnccc12
log10 of MIC: 0.49
